molecules and their reported GI50
Tested on: NCI-H322M
Experiment: Growth inhibition of human NCI-H322M cells incubated for 48 hrs by sulforhodamine B assay
Assay type: functional

{"CHEMICAL STRING": "COc1cc2nc(-c3ccc(Cl)cc3)cc(OCCCN3CCCCC3)c2cc1OC", "GI50": "4.42 µM"}
{"CHEMICAL STRING": "COc1cc2nc(-c3ccc(Cl)cc3)cc(OCCCN3CCOCC3)c2cc1OC", "GI50": "> 100 µM"}
{"CHEMICAL STRING": "COc1cc2nc(-c3ccc(C(F)(F)F)cc3)cc(OCCCN3CCCC3)c2cc1OC", "GI50": "6.77 µM"}
{"CHEMICAL STRING": "COc1cc2nc(-c3ccc(C(F)(F)F)cc3)cc(OCCCN3CCC(O)CC3)c2cc1OC", "GI50": "10.2 µM"}
{"CHEMICAL STRING": "COc1cc2nc(-c3ccc(Cl)cc3)cc(OCCCN3CCC(O)CC3)c2cc1OC", "GI50": "3.22 µM"}

Task item: // GI50 lookup, key: `COc1cc2nc(-c3ccc(Cl)cc3)cc(OCCCN3CCCC3)c2cc1OC`
Reply: 3.36 µM

Task item: Input `COc1cc2nc(-c3ccc(C(F)(F)F)cc3)cc(OCCCN3CCCCC3)c2cc1OC`
Reply: 8.7 µM

Task item: For `COc1cc2nc(-c3ccc(C(F)(F)F)cc3)cc(OCCCN3CCOCC3)c2cc1OC` then?
Reply: 10.5 µM

====

System: SNB-75
Assay: Growth inhibition of human SNB-75 cells at 10 uM incubated for 48 hrs by sulforhodamine B assay relative to control
Assay type: functional
Details: read-out: GI
Kind request: treat 10% as inclusive, so inhibition of growth at 10 µM at 10% or higher is TRUE, anything lower is FALSE.

Use these answered entries as a reference point.
{"CHEMICAL STRING": "COc1cc2nc(-c3ccc(Cl)cc3)cc(OCCCN3CCCCC3)c2cc1OC", "TARGET UNDER TEST": "SNB-75", "CLASS ASSIGNMENT": "TRUE"}
{"CHEMICAL STRING": "COc1cc2nc(-c3ccc(Cl)cc3)cc(OCCN3CCCCC3)c2cc1OC", "TARGET UNDER TEST": "SNB-75", "CLASS ASSIGNMENT": "FALSE"}
{"CHEMICAL STRING": "COc1cc2nc(-c3cccs3)cc(OCCCN3CCC(O)CC3)c2cc1OC", "TARGET UNDER TEST": "SNB-75", "CLASS ASSIGNMENT": "TRUE"}
{"CHEMICAL STRING": "COc1cc2nc(-c3ccc(C(F)(F)F)cc3)cc(OCCN3CCC(O)CC3)c2cc1OC", "TARGET UNDER TEST": "SNB-75", "CLASS ASSIGNMENT": "TRUE"}
{"CHEMICAL STRING": "COc1cc2nc(-c3ccc(Cl)cc3)cc(OCCN3CCOCC3)c2cc1OC", "TARGET UNDER TEST": "SNB-75", "CLASS ASSIGNMENT": "FALSE"}
{"CHEMICAL STRING": "COc1cc2nc(-c3ccc(Cl)cc3)cc(OCCN3CCCC3)c2cc1OC", "TARGET UNDER TEST": "SNB-75", "CLASS ASSIGNMENT": "FALSE"}
{"CHEMICAL STRING": "COc1cc2nc(-c3ccc(Cl)cc3)cc(OCCCN3CCCC3)c2cc1OC", "TARGET UNDER TEST": "SNB-75", "CLASS ASSIGNMENT": "TRUE"}
{"CHEMICAL STRING": "COc1cc2nc(-c3ccc(C(F)(F)F)cc3)cc(OCCN3CCOCC3)c2cc1OC", "TARGET UNDER TEST": "SNB-75", "CLASS ASSIGNMENT": "TRUE"}
{"CHEMICAL STRING": "COc1cc2nc(-c3ccsc3)cc(OCCCN3CCC(O)CC3)c2cc1OC", "TARGET UNDER TEST": "SNB-75", "CLASS ASSIGNMENT": "TRUE"}

Then this compound:
Task item: Hi team, for `COc1cc2nc(-c3ccc(C(F)(F)F)cc3)cc(OCCN3CCCCC3)c2cc1OC` , is the recorded inhibition of growth at 10 µM at or above 10%?
Reply: TRUE

====

Test system: OVCAR-3
Test: Growth inhibition of human OVCAR-3 cells at 10 uM incubated for 48 hrs by sulforhodamine B assay relative to control
Type: functional
Details: read-out: GI
PROPERTY LABEL: inhibition of growth at 10 µM (%)
The reply should be a number in %, with the unit left off.

Known inhibition of growth at 10 µM results, listed for orientation:
{"CHEMICAL STRING": "COc1cc2nc(-c3ccc(Cl)cc3)cc(OCCCN3CCCC3)c2cc1OC", "TARGET UNDER TEST": "OVCAR-3", "OBSERVED VALUE": 62}
{"CHEMICAL STRING": "COc1cc2nc(-c3ccc(C(F)(F)F)cc3)cc(OCCN3CCC(O)CC3)c2cc1OC", "TARGET UNDER TEST": "OVCAR-3", "OBSERVED VALUE": 13}
{"CHEMICAL STRING": "COc1cc2nc(-c3ccc(Cl)cc3)cc(OCCCN3CCOCC3)c2cc1OC", "TARGET UNDER TEST": "OVCAR-3", "OBSERVED VALUE": 62}
{"CHEMICAL STRING": "COc1cc2nc(-c3ccc(C(F)(F)F)cc3)cc(OCCN3CCCC3)c2cc1OC", "TARGET UNDER TEST": "OVCAR-3", "OBSERVED VALUE": 13}

With those in mind, consider the next compound.
Task item: // returns reported inhibition of growth at 10 µM for input `COc1cc2nc(-c3ccc(C(F)(F)F)cc3)cc(OCCN3CCOCC3)c2cc1OC`
Reply: 13

====

Tested on: A549
Test: Growth inhibition of human A549 cells incubated for 48 hrs by sulforhodamine B assay
Type: functional
PROPERTY LABEL: GI50 (µM)
Just the number in µM, nothing appended.

Examples from the recorded data:
{"CHEMICAL STRING": "COc1cc2nc(-c3ccc(Cl)cc3)cc(OCCCN3CCOCC3)c2cc1OC", "TARGET UNDER TEST": "A549", "GI50, µM": 2.02}
{"CHEMICAL STRING": "COc1cc2nc(-c3ccc(Cl)cc3)cc(OCCCN3CCCC3)c2cc1OC", "TARGET UNDER TEST": "A549", "GI50, µM": 1.52}

Task item: What GI50 value was documented for this molecule, `COc1cc2nc(-c3ccc(C(F)(F)F)cc3)cc(OCCCN3CCCCC3)c2cc1OC` ?
Reply: 0.722

Task item: Consider next the molecule `COc1cc2nc(-c3ccc(C(F)(F)F)cc3)cc(OCCCN3CCCC3)c2cc1OC` in the same way.
Reply: 0.653

Task item: Follow-up entry: `COc1cc2nc(-c3ccc(C(F)(F)F)cc3)cc(OCCCN3CCOCC3)c2cc1OC`
Reply: 1.04

====

Tested on: NCI-H322M
Test: Growth inhibition of human NCI-H322M cells at 10 uM incubated for 48 hrs by sulforhodamine B assay relative to control
Assay type: functional
Conditions: read-out: GI
Values of inhibition of growth at 10 µM greater than or equal to 10% map to criterion met; values below map to criterion not met.

Here are 5 compounds together with their reported answers.
{"CHEMICAL STRING": "COc1cc2nc(-c3ccc(Cl)cc3)cc(OCCN3CCC(O)CC3)c2cc1OC", "TARGET UNDER TEST": "NCI-H322M", "CLASS ASSIGNMENT": "criterion not met"}
{"CHEMICAL STRING": "COc1cc2nc(-c3ccc(Cl)cc3)cc(OCCCN3CCCCC3)c2cc1OC", "TARGET UNDER TEST": "NCI-H322M", "CLASS ASSIGNMENT": "criterion met"}
{"CHEMICAL STRING": "COc1cc2nc(-c3ccc(C(F)(F)F)cc3)cc(OCCN3CCC(O)CC3)c2cc1OC", "TARGET UNDER TEST": "NCI-H322M", "CLASS ASSIGNMENT": "criterion met"}
{"CHEMICAL STRING": "COc1cc2nc(-c3ccc(Cl)cc3)cc(OCCN3CCOCC3)c2cc1OC", "TARGET UNDER TEST": "NCI-H322M", "CLASS ASSIGNMENT": "criterion not met"}
{"CHEMICAL STRING": "COc1cc2nc(-c3ccc(C(F)(F)F)cc3)cc(OCCN3CCCCC3)c2cc1OC", "TARGET UNDER TEST": "NCI-H322M", "CLASS ASSIGNMENT": "criterion met"}

Task item: Form field: inhibition of growth at 10 µM at least 10%? Entry: `COc1cc2nc(-c3ccc(Cl)cc3)cc(OCCN3CCCCC3)c2cc1OC`
Reply: criterion not met

Task item: Now consider `COc1cc2nc(-c3ccc(Cl)cc3)cc(OCCCN3CCOCC3)c2cc1OC` and answer again.
Reply: criterion met

Task item: Then this compound: `COc1cc2nc(-c3cccs3)cc(OCCCN3CCC(O)CC3)c2cc1OC`
Reply: criterion met

Task item: Repeat with `COc1cc2nc(-c3ccco3)cc(OCCCN3CCC(O)CC3)c2cc1OC`
Reply: criterion met
